- System: Fibroblast
- methodSummary: Multiplex assay against human fibroblast
- Assay type: toxicity, cell-based
- appliedConditions: 24 h, 1 µM, compound concentration 1 uM, replicate 2
Recorded Population Hoechst High Intensity Objects (%) for the following molecules
Write the answer as a number in %, unit excluded.

Example results:
COc1cc2nc(N3CCN(C(=O)c4ccco4)CC3)nc(N)c2cc1OC.Cl [PRAZOSIN HYDROCHLORIDE] | 7
Cc1cc(NC(=O)NCCN2CCC(O)(Cc3ccccc3)CC2)c2ccccc2n1 [PALOSURAN] | 6
CCCCC[C@H](O)/C=C/[C@H]1[C@H](O)CC(=O)[C@@H]1CCCCCCC(=O)O [ALPROSTADIL] | 2
Cc1cc(O)c(-c2ccc([C@@H](C)CN(C)C)cc2)c2c1[nH]c(=O)c1sccc12 | 9

## Input State the recorded Population Hoechst High Intensity Objects (%) for this entry: `O=C(Nc1cc(-c2ccccc2)nn1-c1ccccc1F)c1ccc([N+](=O)[O-])cc1`
## Output 7

## Input One more molecule: COc1cc(Nc2ncc3c(n2)-c2ccc(Cl)cc2C(c2c(F)cccc2OC)=NC3)ccc1C(=O)O [ALISERTIB]
## Output 4

## Input One more molecule: `C[C@@H]1CC(=O)Nc2cccc(-c3ccc4c(c3)c(-c3cnn(C)c3)nn4C)c2N1`
## Output 7

## Input One more molecule: COC(c1ccccc1)(c1ccccc1)[C@H](Oc1nc(C)cc(C)n1)C(=O)O [AMBRISENTAN]
## Output 5

## Input One more molecule: `Cc1cc(=O)n(C)c2cc(N3C(=O)CC[C@H](NS(=O)(=O)CC(C)C)[C@H]3c3ccc(Cl)cc3)ccc12`
## Output 10

## Input One more molecule: O=C(NCCNCC(O)COc1ccc(O)cc1)N1CCOCC1.O=C(NCCNCC(O)COc1ccc(O)cc1)N1CCOCC1.O=C(O)/C=C/C(=O)O (centres undefined) [XAMOTEROL FUMARATE]
## Output 2

## Input One more molecule: CC(C)(C)c1ccc(CSc2cnn(C(C)(C)C)c(=O)c2Cl)cc1 [PYRIDABEN]
## Output 4

## Input One more molecule: COc1ccc2[nH]c(I)c(CCNC(C)=O)c2c1 [IODOMELATONIN]
## Output 5

## Input One more molecule: COCCCN1CCC(NC(=O)c2cc(Cl)c(N)c3c2OCC3)CC1 [PRUCALOPRIDE]
## Output 7

## Input One more molecule: CN1CCN2c3ccccc3Cc3ccccc3C2C1.Cl (centres undefined) [MIANSERIN HYDROCHLORIDE]
## Output 3

---

- Tested on: U2OS
- methodSummary: Multiplex assay against U2OS
- Type: toxicity, cell-based
- appliedConditions: human, 24 h, 1 µM, compound concentration 1 uM, replicate 2
Non-standard residues stand in square brackets, D forms with d. Residues, ends and D or L forms follow the SMILES beside them.
measureName: Population Healthy Nuclei (%)
Write the answer as a number in %, unit excluded.

Example results:
CN1CCC(C(=O)c2cccc(NC(=O)c3c(F)cc(F)cc3F)n2)CC1 | 71
Cc1nn(C)c2nc(NNC(=O)Nc3cc(Cl)nc(Cl)c3)cc(C(C)C)c12 | 73
COc1cc2nc(N3CCN(C(=O)COc4c(OC)cccc4C(C)C)CC3)nc(N)c2cc1OC.Cl.Cl | 77

With those in mind, consider the next compound.
## Input State the recorded Population Healthy Nuclei (%) for this entry: CC(C)C[C@@H]1NC(=O)[C@@H](C(C)C)NC(=O)[C@@H]2CCCN2C(=O)[C@@H](CC(=O)O)NC(=O)[C@@H](Cc2c[nH]c3ccccc23)NC1=O [BQ-123] (cyclo(L[dW][dD]P[dV]))
## Output 77

These entries and their values trace back to ChEMBL document CHEMBL5058577.
